# experimentalDetails: NCI Yeast Anticancer Drug Screen. Data for the mec2-1 strain (AID 157)
# setupConditions: S. cerevisiae mec2-1 strain, at 50.0 µM, hits give high values
About 79,000 compounds went through this panel and 15% of them were active in at least one assay; those are over-represented in the sample as a whole.
Examples of compounds with documented growth inhibition follow.

compound	growth inhibition, %
O=C(O)/C=C/c1ccc(C(NC(=O)N2C(=O)C=CC2=O)NC(=O)N2C(=O)C=CC2=O)cc1	15.8
Cc1cc2c(cc1C)[n+](=O)c(C(=O)C/C(=N/OCCCc1ccccc1)C(=O)Nc1cc(Cl)ccc1Cl)c(C)n2[O-]	1.8
CCN1CCCC(Nc2nc(Nc3cc(Cl)cc(Cl)c3)nc3ccc(Cl)cc23)C1 (stereo unspecified)	97.1
COc1cc(CC2c3cccc(Oc4ccc(C)cc4)c3CCN2C)ccc1Oc1ccc(C)cc1 (stereo unspecified)	98.2
c1ccc(-c2n[nH]c(-c3[nH]nc(-c4ccccc4)c3-c3ccccc3)c2-c2ccccc2)cc1	15.3
CCCc1c(C)[nH]c2ccccc12	-33.3
CC(=O)NC(C(=O)Nc1ccccc1)=C(C)C	-7.9
COc1ccc(-c2cc(C(=O)Nc3cccc(C(F)(F)F)c3)[nH]c(=S)n2)cc1	-7.95
NC(=O)C(O)C(O)CO (stereo unspecified)	-9.35
O=C(/C=C/c1ccccc1)Sc1ccccc1	-7.6
N=c1ccc2nc(N)nn(O)c-2c1	12.1

---

# experimentalDetails: NCI Yeast Anticancer Drug Screen. Data for the cln2 rad14 strain (AID 165);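 also: 0% = growth equal to vehicle treated cultures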
# setupConditions: S. cerevisiae cln2 rad14 strain, at 50.0 µM, hits give high values
Compounds without any hit were thinned out: in the full panel of roughly 79,000, 15% have a hit.
# binning rule on growth inhibition: class 0: < -10%; class 1: ≥ -10% and < 10%; class 2: ≥ 10%

molecule	classification
CN(C)CCCNc1ccnc2cc([N+](=O)[O-])ccc12	class 1
O=c1[nH]cnc2nn(C3OC(CO)C(O)C3O)nc12 (stereo not given)	class 2
N#Cc1cccc(N2C(=O)c3ccc(C(=O)c4ccc5c(c4)C(=O)N(c4cccc(C#N)c4)C5=O)cc3C2=O)c1	class 2
CC(=O)NNc1nc(C)c(C(=O)/C=C/C=C/c2ccccc2)s1	class 2
O=Cc1ccc(OCCCOc2ccc([N+](=O)[O-])cc2)cc1	class 0
CC(Br)C(=O)Nc1ccc(C(=O)O)c(O)c1 (stereo not given)	class 2
Nc1ccccc1C(F)(F)F	class 1
N=C(N)SCc1cn2ccccc2n1	class 1
COC(=O)NCC(OC(=O)c1cc2c(cc1I)OCO2)C1=CCCCC1 (stereo not given)	class 2
CCC(C)OC(=S)S.[Cu+2] (stereo not given)	class 1
Cc1cc[n+]2c(c1)-c1cc(C)cc[n+]1CC2	class 0
COc1ccc2c(C)cc(N/N=C(\C)C=O)nc2c1	class 2
CC1(C)CC(=O)OC/C=C\CC(Cc2ccccc2)C(=O)C1 (stereo not given)	class 1
N#CCCN(CCC#N)c1ccc(C(=O)NN)cc1	class 2
CCOC(=O)C(C#N)C1=CC(=O)C(=O)c2ccc(OC)cc21 (stereo not given)	class 2
CN(C)Cc1ccnc(Cl)n1	class 0
Cc1cc(C)c([N+](=O)[O-])cc1[N+](=O)[O-]	class 1
Cc1ccc(C(=O)N/N=C/c2ccc3ccccc3c2)cc1	class 0
CN(CCO)CC(O)Cn1cnc2ncnc(N)c21 (stereo not given)	class 2
COc1ccc(Cl)[n+]([O-])n1	class 1
C/C=C/C=C/C=N\O	class 1
Cc1cc(S(=O)(=O)Cl)ccc1Cl	class 0
O=c1oc2ccc(Cl)cc2n1CN1CCOCC1	class 2
C/C(=N/O)c1cccc([N+](=O)[O-])c1	class 0
Cn1c(=O)c2[nH]c(CCNC(=O)c3ccccc3)nc2n(C)c1=O	class 0
COC1OC(C(COC(=O)c2ccccc2)OC(=O)c2ccccc2)C(OC(=O)c2ccccc2)C1OS(C)(=O)=O (stereo not given)	class 2
CC(C)C(=O)N(C(C)C)C(C)C	class 0
CC1CC(c2ccccc2)=Nc2ccccc2S1 (stereo not given)	class 2
C/C=C/c1cc(C)cc(C)c1OC(C)CC (stereo not given)	class 0
CC(=O)c1cc(C(C)(C)C)ccc1O	class 1
O=C1C(Cl)=C(NC(CO)(CO)CO)C(=O)c2ccccc21	class 1
COc1ccc(OC)c(N=Cc2cccs2)c1	class 2
c1ccc2c(c1)c1ccccc1c1c3ccccc3c3ccccc3c21	class 0
Cc1cccc(C)c1NC(=S)NC(=O)c1cccc(Cl)c1	class 0
CC(C)N(CC(=O)NC(=O)c1ccccc1)Cc1ccccc1	class 0
O=C(O)c1ccc(CSc2ccccc2C(=O)O)cc1	class 2
CC(=O)Nc1ccc(/C=C2\N=C(c3ccccc3)OC2=O)cc1	class 0
CNc1cccc2c1C(C)C[C@]1(C)C(=O)Nc3ccccc3[C@H]21 (stereo not given in full)	class 0
Cc1nc(C(N)=S)sc1C(=O)CC(=O)C(=O)Nc1cccc(Cl)c1C	class 1
CCCCCCC(=O)/C=C/c1cc(Cl)cc(Cl)c1OCOC	class 1
CC1(C)OC(=O)C(=Cc2ccc(O)cc2)C(=O)O1	class 1
CCC(C)C(=O)/C=C/c1ccccc1 (stereo not given)	class 0
COC(=O)CC(C)N(c1ccc(OC)cc1)S(=O)(=O)c1ccc(C)cc1 (stereo not given)	class 0
CC(C)CCCC(C)C1CCC2C3C(=O)C=C4CC(OC(=O)CCC(C)C)CCC4(C)C3CCC12C (stereo not given)	class 2
O=C1NC(=S)S/C1=C\c1c(Cl)cccc1Cl	class 2
C=C(C)CN(C#N)CC(=C)C	class 0
Cc1cc2c(C)nn(Cc3ccccc3)c2c(C(=O)O)c1C	class 1
CC1(O)c2ccccc2-c2nc3ccccc3nc21 (stereo not given)	class 0
CCCCCCC[CH2][Sn]1([CH2]CCCCCCC)[O]C(=O)c2cccnc2[O]1	class 2
O=C(O)CC1OCC=C2C[N+]3([O-])CCC45c6ccccc6NC4C1C2CC53 (stereo not given)	class 0

Each recorded value in this set is attributed to PubChem BioAssay (NCI).
